Reported Response values are given for each entry in this list.
# TEST SYSTEM: T1, biotinylated mouse recombinant IL-12Rβ2 (produced in-house) (mouse, UniProt P97378 24-637, random biotinylated)
# T1 construct: Soluble recombinant protein used for panning, ELISA and BLI; also called mIL-12RB2; mIL12RB2
# T1 sequence: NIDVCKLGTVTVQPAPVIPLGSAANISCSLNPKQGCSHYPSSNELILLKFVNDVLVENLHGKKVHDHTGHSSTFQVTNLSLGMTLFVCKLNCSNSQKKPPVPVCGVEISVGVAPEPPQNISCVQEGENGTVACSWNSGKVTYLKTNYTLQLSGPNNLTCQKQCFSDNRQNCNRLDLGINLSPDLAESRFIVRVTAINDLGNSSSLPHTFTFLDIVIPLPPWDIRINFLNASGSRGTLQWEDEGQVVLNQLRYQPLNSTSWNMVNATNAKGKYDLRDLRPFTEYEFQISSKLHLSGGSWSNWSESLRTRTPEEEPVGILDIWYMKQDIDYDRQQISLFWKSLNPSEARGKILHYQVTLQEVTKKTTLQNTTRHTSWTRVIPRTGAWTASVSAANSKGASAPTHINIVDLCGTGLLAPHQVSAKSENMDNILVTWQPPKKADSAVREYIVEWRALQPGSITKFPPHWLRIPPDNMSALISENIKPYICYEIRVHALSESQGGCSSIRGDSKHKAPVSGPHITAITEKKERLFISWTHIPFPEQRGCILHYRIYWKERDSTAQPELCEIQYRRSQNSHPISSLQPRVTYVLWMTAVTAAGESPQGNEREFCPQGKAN
# EXPERIMENT NOTES: BLI (Octet Red), periplasmic extract on biotinylated mouse IL-12Rβ2 on streptavidin tips
The reply should be a number, written without any unit.

BINDER	Response
anti-IL-12Rβ2 VHH clone 3CRHM73 (clone ID 21060) (VHH, Tested as periplasmic extract; not shown: C-terminal HA tag) VHH: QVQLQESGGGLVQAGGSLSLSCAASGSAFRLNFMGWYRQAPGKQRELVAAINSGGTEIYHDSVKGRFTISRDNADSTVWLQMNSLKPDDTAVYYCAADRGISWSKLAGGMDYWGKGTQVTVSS	0.944

**Q:** Any idea what its Response is? The binder is anti-IL-12Rβ2 VHH clone 3CAHM11 (clone ID 21050) (VHH, Tested as periplasmic extract; not shown: C-terminal HA tag) VHH: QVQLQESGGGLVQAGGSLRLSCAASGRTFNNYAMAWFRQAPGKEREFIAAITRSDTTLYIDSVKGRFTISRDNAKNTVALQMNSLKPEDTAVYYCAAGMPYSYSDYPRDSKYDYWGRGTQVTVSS
**A:** 1.03

**Q:** Any idea what its Response is? The binder is anti-IL-12Rβ2 VHH clone 3CRHM14 (clone ID 21053) (VHH, Tested as periplasmic extract; not shown: C-terminal HA tag) VHH: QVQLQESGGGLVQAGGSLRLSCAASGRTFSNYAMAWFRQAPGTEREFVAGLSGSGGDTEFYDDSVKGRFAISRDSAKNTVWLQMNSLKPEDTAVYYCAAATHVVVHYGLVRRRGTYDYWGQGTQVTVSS
**A:** 0.957

**Q:** Any idea what its Response is? The binder is anti-IL-12Rβ2 VHH clone 3CRHM99 (clone ID 21062) (VHH, Tested as periplasmic extract; not shown: C-terminal HA tag) VHH: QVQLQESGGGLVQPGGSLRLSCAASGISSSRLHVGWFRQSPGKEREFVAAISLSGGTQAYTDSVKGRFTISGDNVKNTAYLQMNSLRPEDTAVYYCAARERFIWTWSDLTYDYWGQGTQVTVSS
**A:** 0.812
